Source: patent EP1882698A1

Target: T1, CXCR3 receptor (UniProt P49682 1-368, limits assumed)
T1 sequence (looked up): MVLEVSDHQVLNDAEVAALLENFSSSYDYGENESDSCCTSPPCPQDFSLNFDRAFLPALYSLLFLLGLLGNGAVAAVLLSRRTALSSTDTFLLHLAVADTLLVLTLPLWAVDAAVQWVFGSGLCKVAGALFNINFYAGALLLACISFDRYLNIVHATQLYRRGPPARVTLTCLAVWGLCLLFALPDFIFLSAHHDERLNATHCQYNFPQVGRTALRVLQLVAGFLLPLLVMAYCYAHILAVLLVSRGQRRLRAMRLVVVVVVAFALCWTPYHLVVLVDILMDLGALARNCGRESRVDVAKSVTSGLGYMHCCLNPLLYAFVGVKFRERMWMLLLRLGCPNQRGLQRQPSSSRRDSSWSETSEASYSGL
Assay: cell-based or functional assay
Non-standard residues stand in square brackets, D forms with d. No end group written: not given here. Aun = NCCCCCCCCCCC(=O)O
Please go through the items and note down their calcium mobilization activity of CXCR-3/300-19 cells, dosage 100 µM.
One number for each entry.

For Ac-VPLSRTVRATFISISN[Aun]LKAVSKEMSKRSP [Acetylated-[Ala^9,Phe^11]-IP-10-(1-16)-[linker]-IP-10-(66-78)] , write its calcium mobilization activity of CXCR-3/300-19 cells, dosage 100 µM.
3.1

For VPLSRTPRCTCISIS[Aun]ESKAIKNLLKAVSK (cysteine pairing not given here) [[Pro^7]-IP-10-(1-15)-[linker]-IP-10-(58-71)] , write its calcium mobilization activity of CXCR-3/300-19 cells, dosage 100 µM.
55.1

For VPLSRTVRSTSISIS[Aun]ESKAIENLLKAVSK [[Ser^9,Ser^11,Glu^63]-IP-10-(1-15)-[linker]-IP-10-(58-71)] , write its calcium mobilization activity of CXCR-3/300-19 cells, dosage 100 µM.
46.6

Hi, could you look up calcium mobilization activity of CXCR-3/300-19 cells, dosage 100 µM for each item in my list?
1. VPLSRTVRSTSISIS[Aun]ESKAIKNLLEAVSK [[Ser^9,Ser^11,Glu^67]-IP-10-(1-15)-[linker]-IP-10-(58-71)]
2. Ac-VPLSRTVRCTCISISN[Aun]LKAVSKEMSKRSP (cysteine pairing not given here) [Acetylated-IP-10-(1-16)-[linker]-IP-10-(66-78)]

1. 3.4
2. 52.9
